B1: PduP encapsulation peptide with its native linker fused to the N-terminus of mNeonGreen [Salmonella enterica] / itself (parent)
chain: MNTSELETLIRTILSEQLTTPAQTPVQPQGKGIFQS

# Variants of: B1
# MEASUREMENT_PROTOCOL: turbidity measurement (self-assembly / condensation), NaCl titration
# CONDITION_PARAMETERS: with itself; value read at the lowest NaCl point (est. ~12-15 mM NaCl); parent: 0.45; read off a plot
QUANTITY_NAME: response
Respond with the number and no other words.

Consider the following illustrative entries.
> print(dat)
     mutation.label  reported
1  chain 1 E7R R11E      0.51
2       chain 1 E7D      0.37
3      chain 1 R11K      0.46
4      chain 1 I10S      0.17

Please look at the following variant next.
Noted for chain 1 R11A : its response reads 0.26
